assay: gradient 5% acetonitrile 3 min, to 50% in 2 min, to 85% in 15 min, held 3 min, 100 µL/min; conditions: column: Zorbax Extend-C18 2.1 x 50 mm; eluents: water / acetonitrile, 0.1% formic acid
So basically: RP-LC retention time at 800 s or higher? That is TRUE. Lower than 800 s? That is FALSE.

| molecule | group label |
| --- | --- |
| CCOc1cc2c(cc1OCC)C1C(C(=O)NCCOC)c3ccccc3C(=O)N1CC2 (stereo not given) | FALSE |
| Cn1nc(-c2nc(C3CC3)no2)c2c1CCN(C(=O)c1ccco1)C2 | FALSE |
| CCc1nc2cc(N3CCC(C(=O)NCC4CCCO4)CC3)cnc2nc1CC (stereo not given) | FALSE |
| CCCS(=O)(=O)N1CCc2ccc(NC(=O)Nc3cc(Cl)ccc3OC)cc2C1 | TRUE |
| O=C(COc1cccc(C(F)(F)F)c1)Nc1cc(N2CCOCC2)ncn1 | FALSE |
| COc1nn(C)cc1C(=O)NCc1n[nH]c(=O)c2ccccc12 | FALSE |
| COc1ccc(CC(=O)NC(C)C(=O)Nc2nc3ccccc3[nH]2)c(Cl)c1 (stereo not given) | FALSE |
| O=C(CSc1ncc(-c2ccccc2)[nH]1)N1CCCc2ccccc21 | FALSE |
| CCOC(=O)c1noc2nc(C)nc(N3CCN(c4ccccc4F)CC3)c12 | TRUE |
| Cc1cc(-n2c(C)nc3ccccc3c2=O)ccc1NC(=O)C(C)Oc1cccc(Cl)c1 (stereo not given) | TRUE |
| CS(=O)(=O)N1C[C@H]2CCN(Cc3ccc(Cl)cc3F)C[C@H]21 | FALSE |
| O=C1NC(=O)N2CCSC2(Cc2ccccc2)N1 (stereo not given) | FALSE |
| Cc1ccc(C)c(C(=O)NCc2ccc(-n3ccnc3)cc2)c1 | FALSE |
| CNC(=O)c1ccc(-c2nc3cc(NS(=O)(=O)c4ccc(F)c(Cl)c4)ccc3n2C)cc1 | FALSE |
| CCCn1nccc1-c1csc(S(=O)(=O)N2CCCC2)c1 | TRUE |
| Cc1sc(NC(=O)c2cccs2)nc1-c1ccc2c(c1)N(C)C(=O)CO2 | TRUE |
| CN(C)CCSc1ncccc1C(=O)NCc1cccs1 | FALSE |
| COc1ccc(-c2noc(Cc3nnc(-c4cccc(F)c4)o3)n2)cc1OC | TRUE |
| COc1ccc(CNS(=O)(=O)c2cc3n(c2)CCCNC3=O)cc1 | FALSE |
